protocol: binders of probe aFSTL3 on microarray, primary screen, stem cell growth factor project, biochemical, small-molecule microarray, fluorescence 635/667 (AID 1064);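 further: measures binding of the biotinylated anti-FSTL3 antibody to printed compounds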
setup-conditions: higher = more signal
Decide using composite z-score: a value greater than or equal to 0.5 is yes (1), a smaller one is no (0).

{"molecule": "CCOC(=O)C[C@H]1[C@H](OC(=O)Cc2ccc3c(c2)OCO3)[C@@H](NC(=O)c2ccc(-c3ccccc3)cc2)c2cc(OCCCO)ccc2N1C(=O)c1ccccc1", "assigned-label": "no (0)"}
{"molecule": "C=CCNC(=O)[C@@H]1[C@H]2C(=O)O[C@H](c3ccccc3)[C@H](c3ccccc3)N2[C@H](c2ccccc2OCCO)[C@@]12C(=O)Nc1ccc(C#CC3=CCCCC3)cc12", "assigned-label": "no (0)"}

Test whether the molecule "CN(C)CCCCCCNC(=O)[C@H]1C[C@H]2C(=O)N[C@@H](CCCCN)C(=O)N2[C@H]1c1ccc(O)cc1" records composite z-score of 0.5 or higher.
yes (1)

Does the molecule N#Cc1ccc(NN2C(C(O)c3ccc([N+](=O)[O-])cc3)C=CC3C(=O)N(c4ccccc4)C(=O)C32)cc1 (configuration not stated) have recorded composite z-score that is 0.5 or more?
no (0)

Please indicate if the recorded composite z-score for O=C1OCCC=C[C@H]2OC34C=CCN(c5ccc6ccccc6c5)C(=O)[C@H]3N(CCCCCO)C(=O)[C@@H]4C12 (some centres not stated) meets or exceeds 0.5.
yes (1)

State whether the measured composite z-score reaches 0.5, counting equality as reaching it, for "O=C(CS)NCCCCCCNC(=O)[C@H]1C[C@H]2C(=O)N3CCC[C@H]3C(=O)N2[C@H]1c1cccc(OCCO)c1"
no (0)

====

Test system: Inhibin beta A chain (activin A)
protocol: INHBA (activin A) binders on microarrays, primary screen, biochemical, small-molecule microarray, 635 nm fluorescence scan (AID 1107);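 further: mouse activin A protein probed at 4.33 µg/mL on printed slides; score merges bound-protein fluorescence near 667 nm with spot signal-to-noise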
setup-conditions: small-molecule microarray binding, higher = more signal
composite z-score: recorded values
The answer should be written as a number, with no unit following it.

Examples with their reported composite z-score follow.
{"compound": "COCC1=C2[C@@H](CCc3ccccc3)OB(O)C[C@@H]2[C@@H]2C(=O)N(Cc3ccccc3)C(=O)[C@@H]2C1", "composite z-score": 0.728}
{"compound": "COCCOC(=O)N1C(=O)[C@@]2(c3cc(C#CCC(C(=O)OC)C(=O)OC)ccc31)[C@H](C(=O)N1CCCCCCC1)[C@H]1C(=O)O[C@H](c3ccccc3)[C@H](c3ccccc3)N1[C@@H]2c1ccc(OCCO)cc1", "composite z-score": 1.62}

GET /values?readout=composite z-score&system=Inhibin beta A chain (activin A)&item= "COCCOC(=O)N1C(=O)[C@@]2(c3ccccc31)[C@H](C(=O)Nc1nc3ccccc3s1)[C@H]1C(=O)O[C@H](c3ccccc3)[C@H](c3ccccc3)N1[C@@H]2c1ccc(OCCO)cc1"
0.464

Lab note: need composite z-score with Inhibin beta A chain (activin A) for entry "C=C(COC)/C(=C/C[C@H](OC(=O)c1ccncc1)c1cccc(OCCO)c1)c1cc(C(=O)OC)ccc1OC" , please look it up.
0.533

// fetch Inhibin beta A chain (activin A) composite z-score for [N-]=[N+]=NCc1ccccc1C[C@@]1(C(=O)NCC(O)CO)N=C(c2ccc(OCCCO)cc2)O[C@@H]1c1ccccc1CN=[N+]=[N-] (some centres not stated)
0.688

Please tell me: composite z-score of "COCCOC(=O)N1C(=O)[C@@]2(c3cc(C#CCC(C(=O)OC)C(=O)OC)ccc31)[C@H](C(=O)N1CCN(c3ncccn3)CC1)[C@H]1C(=O)O[C@H](c3ccccc3)[C@H](c3ccccc3)N1[C@@H]2c1ccc(OCCO)cc1" , system Inhibin beta A chain (activin A)?
0.149

Test system Inhibin beta A chain (activin A); read-out composite z-score; what value for "COc1ccc(C#Cc2ccc3c(c2)[C@]2(C(=O)N3)[C@H](c3ccc(O)cc3)N3[C@H](c4ccccc4)[C@H](c4ccccc4)OC(=O)[C@H]3[C@@H]2C(=O)NC[C@H](O)c2ccccc2)cc1" ?
0.282

Values compiled from PubChem BioAssay.
